This listing pairs binders with measured kon.
molecular target: T1, recombinant human CD3 epsilon/delta heterodimer (human, UniProt P07766 23-126; P04234 22-105); assay: Octet BLI, mAb on FAB2G sensor, hCD3 E/D 200-50 nM; R^2 0.96
T1 construct: Recombinant protein in solution (200-50 nM) in the Octet assay; also called hCD3 E/D; human CD3E/D
T1 sequence (P07766 23-126, stated change not applied, chain 1 of 2): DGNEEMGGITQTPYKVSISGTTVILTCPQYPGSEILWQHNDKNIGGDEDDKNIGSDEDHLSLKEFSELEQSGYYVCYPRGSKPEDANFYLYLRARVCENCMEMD
T1 sequence (P04234 22-105, stated change not applied, chain 2 of 2): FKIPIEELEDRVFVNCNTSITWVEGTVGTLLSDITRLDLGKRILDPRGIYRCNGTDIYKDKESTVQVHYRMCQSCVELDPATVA
Reply with just the number (in M⁻¹ s⁻¹).

Previously resolved entries follow.
binder	kon, M⁻¹ s⁻¹
ABL-CD3-13 (antibody, V domains shown, Chimeric hybridoma mAb: human V, CH1, upper hinge; mouse middle hinge, CH2, CH3) VH: EVQLVESGGGLVQPGGSLRLSCAASGFTFSNYWMSWVRQAPGKGLEWVANIKEDGSEKYYVDSVKGRFTISRDNAKNSLYLQMNSLTAEDTSVYYCARERRTGYFDYWGQGTLVTVSS VL: DIQMTQSPSTLSASVGDRVTITCRASQSISNWLAWYQQKPGKAPNLLIYKASSLESGVPSRFSGSGSGTEFTLTISSLQPDDFANYYCQQYKSYSWTFGQGTKVEIK	31200
ABL-CD3-22 (antibody, V domains shown, Chimeric hybridoma mAb: human V, CH1, upper hinge; mouse middle hinge, CH2, CH3) VH: EVQLVESGGGLVQPGGSLRLSCAASGFTFSSYSMNWVRQAPGKGLEWVSYISSSSSTIYYADSVKGRFTISRDNAKNSLYLQMNSLRDEDTAVYYCARDGPVDYGMDVWGQGTTVTVSS VL: SYELTQPPSVSVSPGQTARITCSGDALPKQYTYWCQQKPGQAPVLVIYKDSERPSGIPERFSGSSSGTTVTLTISGVQAEDEADYYCQSADSSGTYRVFGGGTKLTVL	104000
ABL-CD3-27 (antibody, V domains shown, Chimeric hybridoma mAb: human V, CH1, upper hinge; mouse middle hinge, CH2, CH3) VH: QVQLVQSGAEVKKPGASLKVSCKASGYTFTSYYMHWVRQAPGQGLEWMGIINPSNGNTISAQKFQGRVTMTRDTSTSTVYMEMSSLRSEDTAVYYCVRCWGYYVMDVWGQGTTVTVSS VL: QTVVTQEPSFSVSPGGTVTLTCGLNSGSVSTSYYPSWYQQTPGQTPRTLIYSTNTRSSGVPDRFSGSILGNKAALTITGAQADDESDYYCVLYMGSGIWVFGGGTKLTVL	228000

Please find the next binder below.
I am curious: what kon value has been reported for ABL-CD3-33 (antibody, V domains shown, Chimeric hybridoma mAb: human V, CH1, upper hinge; mouse middle hinge, CH2, CH3) VH: EVQLVESGGGLVKPGGSLRLSCAASGFTFSSYSMNWVRQAPGKGLEWVSSISRSSSYIYYADSVKGRFTISRDNAKNSLYLQMNSLRAEDTAVYYCAREPPTLGMDYWGQGTLVTVSS VL: NFMLTQPHSVSESPGKTVTISCTRSSGSIASNYVQWYQQRPGSSPTTVIYEDNQRPSGVPDRFSGSIDSSSNSASLTISGLKTEDEADYYCQSYYNSNRVFGGGTKLTVL ?
366000
